Target: T1, human CD137-human Fc chimeric protein (Acro Biosystems cat no. 41B-H5258) (human, UniProt Q07011 24-186)
T1 construct: Bought protein; The Octet Protein G and Biacore experiments name no catalogue number; also called human CD137Fc recombinant protein; human CD137-Fc recombinant protein; not shown: human IgG1 Fc tag
Test: BLI (Octet RED384), CD137-Fc on Protein G sensors, 1:1 model
pKd: −log10 of the molar value.
Value type: pKd

Reference set, count: 3
Humabody VH 1.75 (VHH, human single VH domain) VHH: QVQLVESGGGLVQPGGSLRLSCAASGFTFSDYYMSWIRQAPGKGLEWVANINQDGSERYYVDSVKGRFTISRDNAKNSLYLQMSSLRAEDTAVYFCARGGEGYGVDHYGLDVSGQGTTVTVSS; 9.12
Humabody VH 2.8 (VHH, human single VH domain) VH: EVQLVESGGGLVKPGGSLRLSCAASGFAFSDYYMSWFRQAPGKGLEWVSHISGSGTTIDYADSVKGRFTISRDNAKNSLYLQMNSLRAEDTAVYHCAREDSRMPGTTDFDNWGQGTLVTVSSHHHHHH; 8.28
Humabody VH 2.20 (VHH, human single VH domain) VHH: EVQLVESGGGLVKPGGSLRLSCAASGFTFSDYYMSWIRQAPGKGLEWVSHISSSGSTIDYADSVKGRFTISRDNAKNSLYLQMNSLRAEDTAVYYCAREDPRMPGTFDFDNWGQGTLVTVSS; 8.92

P. Humabody VH 1.78 (VHH, human single VH domain) VH: QVQLVESGGGLVQPGGSLRLSCAATGFTLSNYWMNWVRQAPGKGLEWVANINQDGSERYYVDSVKGRFTISRDNAKNSLYLQMSSLRAEDTAVYFCARGGEGYGVDHYGLDVSGQGTTVTVSSHHHHHH
Q. Humabody VH 2.26 (VHH, human single VH domain) VHH: EVQLVESGGGLVKPGGSLRLSCTASGFTFTDYYMSWFRQAPGKGLEWVSHISSSGTTIDYADSVKGRFTISRDNAKNSLYLQMNSLRADDTAVYYCAREDIRMPGTTDFDNWGQGTLVTVSS
Lookup: P or Q : whose pKd is greater? Kindly give the label for the entry you pick.
Found: P
(P: 9.14, Q: 8.33)

I. Humabody VH 2.1 (VHH, human single VH domain) VH: EVQLVESGGGLVKPGGSLRVSCAASGFTFSDYYMSWFRQAPGKGLEWVSYISGSGDIIDYADSVKGRFTISRDNAKNSLYLQMNNLRAEDTAVYHCAREDSRLTGTTDFDNWGQGTLVTVSSHHHHHH
II. Humabody VH 1.81 (VHH, human single VH domain) VHH: QVQLVESGGGLVQPGGSLRLSCAATGFTLSNYWMNWVRQAPGKGLEWVANINQDGSERYYVDSVEGRFTISRDNAKSSLYLQMSNLRAEDTAVYFCARGGEGYGVDHYGLDVSGQGTTVTVSS
Lookup: Lab note: check whether I or II has the lower measured pKd. State your choice using its label.
Found: I
(I: 8.54, II: 9.80)
